- Protocol text: Vapor pressure
- Format: physicochemical
- Applied conditions: at 20° C.
Measurement label: vapor pressure

Molecule	Measured result
CCC(C)=NO [MEKO, methyl ethyl ketoxime, reference compound]	2.00 mm Hg

Source: patent US20230265296A1
